# Assay details: Human HepG2 cell viability assay in 384 well format
# Format: toxicity, cell-based
# Parameters: dose 125 nL, time 70.5 hour; concentration not given beside the values
# Test context: HepG2 cells, read-out: Inhibition
Measured quantity: cytotoxicity at 70.5 h (%)
Value expressed in %; do not type the unit.

Measured cytotoxicity at 70.5 h of O=S(=O)(CCNCc1cc(O)c2cc(F)ccc2n1)N1CCCC1 : 17.6

Measured cytotoxicity at 70.5 h of c1ccc(OCCN2CCC(c3nnc(-c4cccnc4)o3)CC2)cc1 : -2.58

Measured cytotoxicity at 70.5 h of CCn1[nH]c(C)c2c(C(F)(F)F)cc(=O)nc1-2 : -4.81

Next:
Measured cytotoxicity at 70.5 h of COc1ncccc1NC(=O)N(Cc1ccc(C(N)=O)cc1)C1CC1 : -12.7

Measured cytotoxicity at 70.5 h of CCc1nc(C2CCCN(C(=O)NC(C)C)C2)no1 (stereo unspecified) : 21.2

Measured cytotoxicity at 70.5 h of O=C(CN1CCc2ccccc21)NCc1ccc(Cl)cc1 : 3.34

Measured cytotoxicity at 70.5 h of CC(=O)c1cccc(NC(=O)c2cnc(N3CCN(C)CC3)nc2C)c1 : 12.8

Measured cytotoxicity at 70.5 h of Cc1nc[nH]c1CN1C[C@@H]2OCCN(c3ncccn3)[C@@H]2C1 : -10.6

* * *

Quick list: cytotoxicity at 70.5 h per entry.
# Assay details: Human HepG2 cell viability assay in 384 well format
# Assay type: toxicity, cell-based
# Set-up: dose 125 nL, time 70.5 hour; concentration not given beside the values
# Test context: HepG2 cells, read-out: Inhibition
Value expressed in %; do not type the unit.

For orientation, consider the following solved cases.
Measured cytotoxicity at 70.5 h of CCNc1cc2c(nn1)CCN(C(=O)c1cccc(CSC)c1)C2 : -3.17

Measured cytotoxicity at 70.5 h of CS(=O)(=O)N1CCN(C(=O)C2CSCCC(=O)N2)CC1 (stereo unspecified) : 19.7

Measured cytotoxicity at 70.5 h of COc1ccc(CN(C)CC(=O)NC2(C)CCS(=O)(=O)C2)cc1F (stereo unspecified) : -0.516

Measured cytotoxicity at 70.5 h of COCCN1C[C@@H](C)[C@@]2(COCCN(C(=O)c3ccccn3)C2)C1 : -4.02

Measured cytotoxicity at 70.5 h of COCCN1CCN(Cc2ccoc2)Cc2cccnc21 : 6.66

Measured cytotoxicity at 70.5 h of CN1CCN(Cc2cn3c(n2)CN(C(=O)c2cccn2C)CC3)CC1 : -4.16

Measured cytotoxicity at 70.5 h of Nc1nc(N)c2c(n1)OC1(CCN(Cc3nccs3)C1)C2 (stereo unspecified) : -6.73

Measured cytotoxicity at 70.5 h of Fc1cnc(N2CCC3(CC2)CN(Cc2ccccn2)CCO3)nc1 : 5.75

Measured cytotoxicity at 70.5 h of CN(CC(=O)N(C)C1CCCCC1)Cc1nc2c(cnn2C)c(=O)[nH]1 : 8.15

Measured cytotoxicity at 70.5 h of O=C(c1nc2c(s1)CCCN2CC1CC1)N1CCCC1 : -0.67

Please look at the following compound next.
Measured cytotoxicity at 70.5 h of Cc1ccc(C)c(NS(=O)(=O)c2cc3c(c(C(=O)O)c2)OCCO3)c1 : -8.38

* * *

# Assay details: Human HepG2 cell viability assay in 384 well format
# Type: toxicity, cell-based
# Set-up: dose 125 nL, time 70.5 hour; concentration not given beside the values
# Test context: HepG2 cells, read-out: Inhibition
Quick list: cytotoxicity at 70.5 h per entry.
Value expressed in %; do not type the unit.

For orientation, consider the following solved cases.
Measured cytotoxicity at 70.5 h of CCN(CC)c1ncc(Cl)c(C(=O)NC2CCc3nccn3C2)n1 (stereo not given) : -13.5

Measured cytotoxicity at 70.5 h of CCN(CC1CN(Cc2cccc(C#N)c2)CCO1)c1cccnn1 (stereo not given) : 0.605

Measured cytotoxicity at 70.5 h of Cc1ccc(C(=O)NCC(C)Cn2cccn2)c(=O)[nH]1 (stereo not given) : -3.38

Measured cytotoxicity at 70.5 h of CC(OCC1CC1)C(=O)Nc1ccn(Cc2ccccc2)n1 (stereo not given) : -7.82

Measured cytotoxicity at 70.5 h of CCC(C)(CC(=O)OC)NC(=O)c1cccc(F)c1F (stereo not given) : -14.7

Next:
Measured cytotoxicity at 70.5 h of CCc1nc(NS(=O)(=O)c2cc(C)ccc2F)no1 : -8.12

Measured cytotoxicity at 70.5 h of CCc1noc(C(C)N2CCN(Cc3nc(C)c(C)o3)CC2)n1 (stereo not given) : 23.9

Measured cytotoxicity at 70.5 h of CC(O)CN1CCN(C(=O)CN(C)c2ccc(C#N)cn2)CC1 (stereo not given) : 10.3

Measured cytotoxicity at 70.5 h of Cc1cc(-c2ccccc2C(=O)O)nc(C2CCCN(C)C2)n1 (stereo not given) : -7.61

Measured cytotoxicity at 70.5 h of Cc1cccc(C(Nc2nccc(C)n2)C2CC2)n1 (stereo not given) : -4.46

Measured cytotoxicity at 70.5 h of NC(=O)Cn1cc(NC(=O)N2CCSCC2)cn1 : 15.3

Measured cytotoxicity at 70.5 h of Fc1ccccc1Cc1noc(CN2CCC(N3CCSCC3)CC2)n1 : -3.88

Measured cytotoxicity at 70.5 h of CC(C)N(Cc1nccn1C)C(=O)c1cnc(O)cn1 : -3.41

Measured cytotoxicity at 70.5 h of Cc1nn(C)c(C)c1CCC(=O)N1CCCC(n2cccn2)C1 (stereo not given) : 21.7

Measured cytotoxicity at 70.5 h of CC(NCc1ccsc1)c1ccc2c(c1)NC(=O)CO2 (stereo not given) : -13.9

Measured cytotoxicity at 70.5 h of Cc1nnc(CN2CCCCC2c2nc(-c3ccccc3)no2)s1 (stereo not given) : -8.42

Measured cytotoxicity at 70.5 h of CCC(C)(NCC(N)=O)c1nccs1 (stereo not given) : -4.9

Measured cytotoxicity at 70.5 h of COc1ccc(-n2ccc(C(=O)N(CCN(C)C)C(C)C)n2)cc1 : -10.3
